- Test system: P. falciparum 3D7 growth, pLDH absorbance
- test name: blood-stage malaria parasite growth potency – strain 3D7, dose response (AID 2305)
Binarize IC50 at 700 nM; below is Satisfied, at or above is Not satisfied.

{"columns": ["molecule", "study system", "assigned class"],
 "data": [
  ["CC(=O)NCCNCc1cccc(C(=O)NCc2cccc(C(F)(F)F)c2)c1", "P. falciparum 3D7 growth, pLDH absorbance", "Not satisfied"],
  ["O=C(Nc1cccc(-c2ccc(CN3CCC(O)CC3)cc2)c1)c1ccc(Cl)cc1", "P. falciparum 3D7 growth, pLDH absorbance", "Not satisfied"],
  ["COc1ccc(-c2nc(NCc3ccccc3)c3cc(OC)c(OC)cc3n2)cc1", "P. falciparum 3D7 growth, pLDH absorbance", "Satisfied"],
  ["O=C(NCCCCN1CCC(c2ccc3ccccc3c2O)CC1)c1ccc(-c2ccc(Cl)cc2)cc1", "P. falciparum 3D7 growth, pLDH absorbance", "Satisfied"],
  ["O=C(NC1CCN(Cc2ccccc2)CC1)c1ccc(-c2nc3cc(F)c(F)cc3[nH]2)s1", "P. falciparum 3D7 growth, pLDH absorbance", "Not satisfied"],
  ["O=C(C=Cc1ccc(Cl)c(Cl)c1)NCCCCCN1CCCC(CCCNC(=O)c2cccs2)C1 (stereo not given)", "P. falciparum 3D7 growth, pLDH absorbance", "Not satisfied"],
  ["CC(C)Oc1cc(-c2ccc(S(C)(=O)=O)cc2)nc(N(Cc2cccc(F)c2F)Cc2cccc(F)c2F)n1", "P. falciparum 3D7 growth, pLDH absorbance", "Satisfied"],
  ["O=C1C(c2ccccc2)=C(Nc2cccc(OC(F)(F)C(F)F)c2)c2ccccc21", "P. falciparum 3D7 growth, pLDH absorbance", "Satisfied"],
  ["Cc1ccc(Nc2nc3cc(Nc4ccnc(Nc5ccc(CS(C)(=O)=O)cc5)n4)ccc3o2)cc1", "P. falciparum 3D7 growth, pLDH absorbance", "Not satisfied"],
  ["COc1ccc(-c2csc3ncnc(Cl)c23)cc1OC", "P. falciparum 3D7 growth, pLDH absorbance", "Not satisfied"]
]}

Given Cc1ccc2c(C3=CCN(CCCCC4(C)C(=O)Nc5c(F)cccc54)CC3)c(C)[nH]c2c1 (stereo not given) , is recorded IC50 strictly lower than 700 nM?
Satisfied

# check: IC50 < 700 nM for CN(Cc1cccc(O)c1)C1CCCN(c2cc(NC(=O)c3ccc(F)cc3)ccn2)C1 (stereo not given)
Not satisfied

Criterion: IC50 strictly below 700 nM. Is it met by Cc1cccc(-n2c(=O)c3c4c(sc3n3c(SCCC(C)C)nnc23)CCCC4)c1 ?
Not satisfied

For this molecule, is IC50 lower than 700 nM? CC(C)N(CC(=O)c1ccc(O)c(C(=O)O)c1)Cc1ccccc1
Satisfied

Threshold test, IC50 < 700 nM: Cc1ccc(C)c2sc(N(CCCn3ccnc3)C(=O)C=Cc3cccs3)nc12
Not satisfied

Field: below-cutoff. Rule: recorded IC50 strictly less than 700 nM. Subject: O=C(CCCCCNC(=O)c1ccc(O)c(-c2ccc(Cl)c(Cl)c2)c1)NCCN1CCOCC1
Not satisfied

I wonder whether Cc1nc2ccc3ccc(CNc4ccc(C(=O)N[C@@H](CCC(=O)O)C(=O)O)c(F)c4)cc3c2c(=O)[nH]1 has IC50 below 700 nM. Can you tell?
Satisfied

Dear colleague, could you confirm whether IC50 of OC(c1ccc(Cl)cc1)(c1ccc(Cl)cc1)C(c1ccc(Cl)cc1)n1ccnc1 (stereo not given) falls below 700 nM? Thanks.
Not satisfied

Lab note: confirm whether the reported IC50 for this molecule is below 700 nM, equality not counting. molecule: CCOC(=O)c1ccc(Nc2cc(Nc3ccc(C(=O)OCC)cc3)nc(C)n2)cc1
Not satisfied
